The measured values listed here are drawn from PubChem BioAssay (NCI).

Parameter: TGI. Scope: all listed entries.
# Tested on: SNB-75 CNS
# test_summary: NCI tumour cell line growth inhibition, 48 h

compound	bound_type	TGI [µM]
COc1cc2c(cc1OC)[C@@H]1C(=O)c3cc4c(cc3[C@@H]1N(CCN(C)C)C2=O)OCO4	=	30.7
CCOC(=O)C1=C(C)N=C2SC=C(c3ccccc3)N2[C@H]1c1cn[nH]c1-c1ccc(Cl)cc1	=	18.3
COc1ccc([As]=[As]c2ccc(OC)c(NCS(=O)(=O)O)c2)cc1NCS(=O)(=O)O (centres undefined)	=	2.8
COC(=O)C1CC(C(=O)OC)c2nc3cc([N+](=O)[O-])ccc3nc21 (centres undefined)	>	100
CC12CCC(=O)N1c1cnccc1N2 (centres undefined)	>	100
CC(=O)N/N=C1/NN(C(C)=O)C2(S1)C(=O)Nc1ccc(C)cc12 (centres undefined)	>	100
COP(=O)(CC(=O)C1OC(C)(C)OC1C(O)COCc1ccccc1)OC (centres undefined)	>	100
CS(=O)(=O)c1ccc(Oc2cc(F)cc(C#N)c2)c2c1[C@H](O)[C@H](F)[C@H]2F	>	100
Cc1cc(S(=O)(=O)Nc2n[nH]c(-c3ccc(Cl)cn3)n2)c(S)cc1Cl	>	100
N#CC12CC3=C(N=C1NC1=C(CCc4ccccc41)C2)c1ccccc1CC3 (centres undefined)	=	11
CCO.CCO.Oc1ccc(Nc2ncns2)cc1.Oc1ccc(Nc2ncns2)cc1.[Ti]	=	69.1
NNC(=O)c1n[nH]n(N)c1=S	>	100
C[n+]1[se]c2ccccc2c1Cl	=	45.8
CCC1(CC)C(=O)N(C(=O)c2ccc(C)cc2)N(C(=O)c2ccc(C)cc2)C1=O	>	75
N#CCC(=O)N/N=C(\CCN1CCCC1)CC(c1ccccc1)c1c(O)c2ccccc2oc1=O (centres undefined)	>	100
CN1CCC(SC2Cc3cc(Cl)ccc3Sc3ccccc32)CC1 (centres undefined)	=	22.2
COc1ccc(-n2c(N)c(C#N)c(C#N)c2-c2cccc([N+](=O)[O-])c2)cc1	>	100
CCCCCCCCCCCCCCCCSC(=NCC)NCC	=	12.9
O=C(CI)OCC(COC(=O)CI)OC(=O)CI	=	29.3
COc1cc(/C=C2\CCc3ccccc3C2=O)ccc1O	=	79.1
CCOC(=O)C1C(=O)CN2CCc3c([nH]c4ccccc34)C12C(=O)OCC (centres undefined)	>	100
Cc1ccc(/C=C2\COc3ccc(O)c(O)c3C2=O)cc1	=	3.48
CCc1ccccc1NC(=O)C1=C(C)NC(C)=C(C(=O)Nc2ccccc2CC)C1c1cccc([N+](=O)[O-])c1	>	100
CC1(c2ccccc2)N=C(C(N)=O)c2[nH]cnc2N1 (centres undefined)	>	100

###

Parameter: TGI. Scope: all listed entries.
# Test system: SNB-19 CNS
# test_summary: NCI tumour cell line growth inhibition, 48 h
measurement_kind: TGI

compound	assayed_system	measurement_kind	result
CCn1c2ccccc2c2nnc(NCCCO)nc21	SNB-19 CNS	TGI	> 100 µM
C[n+]1[se]c2ccccc2c1Cl	SNB-19 CNS	TGI	> 100 µM
O=C(CC(C(=O)c1ccc(F)cc1)c1ccsc1)c1cccs1 (configuration not stated)	SNB-19 CNS	TGI	> 100 µM
COc1ccc(NC(=O)CC(=O)NN)cc1	SNB-19 CNS	TGI	> 100 µM
CCCCN(CCCC)CC(C(=O)Nc1ccccc1)/C(C)=N\NC(=O)c1ccncc1 (configuration not stated)	SNB-19 CNS	TGI	> 100 µM
Nc1ccn(C2OC(CO)C(O)C2(F)F)c(=O)n1 (configuration not stated)	SNB-19 CNS	TGI	70.1 µM
CCC1(CC)C(=O)N(C(=O)c2ccc(C)cc2)N(C(=O)c2ccc(C)cc2)C1=O	SNB-19 CNS	TGI	> 75 µM

###

# Tested on: SK-OV-3 ovarian
# test_summary: NCI tumour cell line growth inhibition, 48 h
measurement_kind: TGI

query_smiles	measurement_kind	result
NNC(=O)c1n[nH]n(N)c1=S	TGI	> 100 µM
COc1cc2cc(c1Cl)N(C)C(=O)C[C@H](OC(=O)[C@H](C)N(C)C(=O)CCS)C[C@]1(C)O[C@H]1[C@H](C)[C@@H]1C[C@@](O)(NC(=O)O1)[C@H](OC)/C=C/C=C(\C)C2	TGI	> 50 µM
CS(=O)(=O)Nc1ccc(Nc2c3ccccc3nc3cc([N+](=O)[O-])ccc23)cc1	TGI	15.1 µM
CCOC(=O)/C=C(/N=P(c1ccccc1)(c1ccccc1)c1ccccc1)C(F)(F)F	TGI	> 100 µM

###

# System: RXF 393 renal
Labels: 1.0 for active, 0.0 for inactive

compound	class
Cc1ccc(C(=Nc2ccccc2)N=P(c2ccccc2)(c2ccccc2)c2ccccc2)cc1	0.0
COC1C(O)CC(OC2CC(OC3CC(O[C@@H]4C(=O)c5c(cc6cc(OC7CC(OC8CC(O)C(O)C(C)O8)C(O)C(C)O7)c(C)c(O)c6c5O)CC4[C@H](OC)C(=O)C(C)=O)OC(C)C3O)OC(C)C2O)OC1C (stereo partly drawn)	1.0
CCN(CC)c1ccc(C2=NN(C(C)=O)C(c3cc(OC)c(OC)c(OC)c3)C2)cc1 (stereo not drawn)	1.0
CCCCCCCCCCCCCCCCSC(=NCC)NCC	0.0
Cc1ccc(/C=C2\COc3ccc(O)c(O)c3C2=O)cc1	1.0
CC(C)Cc1ccc(C(C)C(=O)NCc2ccc(Cn3c(=O)sn(CCCCl)c3=O)cc2)cc1 (stereo not drawn)	0.0
COc1cc2c3c(n(CCCn4ccnc4)c(=O)c2cc1OC)-c1cc2c(cc1C3=O)OCO2	0.0
CS(=O)(=O)c1ccc(Oc2cc(F)cc(C#N)c2)c2c1[C@H](O)[C@H](F)[C@H]2F	0.0

###

Reported values: GI50 for CCRF-CEM leukemia, one per item.

compound	assayed_system	GI50
COc1cc(/C=C2\CN(S(=O)(=O)c3ccc(C)cc3)C/C(=C\c3cc(CN4CCOCC4)c(O)c(OC)c3)C2=O)cc(CN2CCOCC2)c1O	CCRF-CEM leukemia	513 nM
O=C1Nc2ccccc2/C1=C/C(=O)c1ccc(N2CCCC2)cc1	CCRF-CEM leukemia	2000 nM
CCOC(=O)C1=C(C)N=C2SC=C(c3ccccc3)N2[C@H]1c1cn[nH]c1-c1ccc(Cl)cc1	CCRF-CEM leukemia	3120 nM
COc1cc(C(=O)N2CCN(c3ccccn3)CC2)c(N)cc1OCc1ccccc1	CCRF-CEM leukemia	21000 nM
Cc1cc2c(cc1C)[n+](=O)c(C(=O)C(C)(C)C)c(C(F)(F)F)n2[O-]	CCRF-CEM leukemia	12300 nM
CC(C)Cc1ccc(C(C)C(=O)NCc2ccc(Cn3c(=O)sn(CCCCl)c3=O)cc2)cc1 (centres undefined)	CCRF-CEM leukemia	361 nM
O=C(Cc1csc2nc(-c3ccc(Br)cc3)cn12)N/N=C/c1ccccc1	CCRF-CEM leukemia	17300 nM
COc1cc2c3c(n(CCCn4ccnc4)c(=O)c2cc1OC)-c1cc2c(cc1C3=O)OCO2	CCRF-CEM leukemia	< 10 nM
O=C(c1ccccc1)c1c(C(F)(F)F)n([O-])c2ccc(F)cc2[n+]1=O	CCRF-CEM leukemia	349 nM

###

# Test system: TK-10 renal
# test_summary: NCI tumour cell line growth inhibition, 48 h
measurement_kind: TGI

compound	result
Cc1nc(N)nc(N)c1CCCCc1ccccc1	88.7 µM
CN[C@H](C)[C@@H](OC)c1ccccc1	> 100 µM
CN(C)CCCNC(=O)c1c(-c2cccnc2)cnc2ccccc12	> 100 µM
COc1ccc(OC)c(C(=O)c2cccc(C(=O)c3cc(OC)ccc3OC)n2)c1	> 100 µM
O=C1Nc2ccc(Cl)cc2C(=O)N2CCC[C@@H]12	> 100 µM
S=c1sc2c(s1)SCc1cccc(n1)CSc1sc(=S)sc1SCc1cccc(n1)CS2	> 100 µM
O=C1/C(=N\n2c(-c3ccncc3)n[nH]c2=S)c2cc(Cl)ccc2N1CN1CCCCC1	> 100 µM
CCN(CC)CCOc1cccc2nc3c(cc12)Cn1c-3cc2c(c1=O)COC(=O)C2(O)CC (centres undefined)	> 100 µM
CCOc1ccccc1N1CSc2nnc(-c3ccccc3)n2C1	> 100 µM
N#CCC(=O)N/N=C(\CCN1CCCC1)CC(c1ccccc1)c1c(O)c2ccccc2oc1=O (centres undefined)	> 100 µM
OCCN(CCO)CCn1cnc2c(NCc3ccccc3)ncnc21	> 100 µM
COC1C(O)CC(OC2CC(OC3CC(O[C@@H]4C(=O)c5c(cc6cc(OC7CC(OC8CC(O)C(O)C(C)O8)C(O)C(C)O7)c(C)c(O)c6c5O)CC4[C@H](OC)C(=O)C(C)=O)OC(C)C3O)OC(C)C2O)OC1C (some centres undefined)	0.0758 µM
O=C(c1cc(Cl)ccc1Cl)N1CCN(c2ccc(Cl)c(Cl)c2)CC1	> 100 µM
O=C(c1ccccc1)c1c(C(F)(F)F)n([O-])c2ccc(F)cc2[n+]1=O	3.18 µM
Cn1nc(-c2ccccc2)c(C(=O)/C=C/c2ccc(F)cc2)c(N2CCCC2)c1=O	71.4 µM
OCCCc1n(Cc2ccc3ccccc3c2)c2ccccc2[n+]1Cc1ccc2ccccc2c1	4.74 µM
C[C@H](NC1=CC(=O)C(N[C@@H](C)[C@H](O)c2ccccc2)=CC1=O)[C@H](O)c1ccccc1	> 100 µM
COc1ccc(N=NC(=O)NC(CC(C)C)C(=O)NC(Cc2ccccc2)C(=O)O)cc1 (centres undefined)	> 100 µM
Cc1[nH]c2ccccc2c1-c1n[nH]c(=O)c2ccccc12	> 100 µM
